biological target: constitutive proteasome β5c unit (Homo sapiens, UniProt P20618+P28074); assay: Caliper-based proteasome enzymatic activity assay, β5c; conditions: human recombinant constitutive proteasome 0.3 nM, FAM-peptide substrate 1 μM, 3 h at rt; read-out: β5c subunit IC50
# IC50 per entry

Example entries and their recorded answers appear below.
COMPOUND: Cc1ccc(C[C@H](NC(=O)OC[C@H]2CCCCN2C(=O)C(C#N)=CC(C)(C)C)B(O)O)cc1 [Example 24]
RESULT: 1.39 µM

COMPOUND: CC(C)(C=C(C#N)C(=O)N1CCCC[C@@H]1COC(=O)N[C@@H](Cc1ccc(F)cc1F)B(O)O)N1CCC(F)(F)C1 [Example 113]
RESULT: > 5 µM

COMPOUND: Cc1ccc(C[C@H](NC(=O)OC[C@@H]2CCCCCN2C(=O)C(C#N)=CC(C)(C)C)B(O)O)cc1 [Example 33]
RESULT: > 5 µM

Fill blank: measured IC50 of the compound CC(C)(C=C(C#N)C(=O)N1CCCC[C@@H]1COC(=O)N[C@@H](CCc1ccccc1)B(O)O)N1CCC(F)(F)C1 [Example 101] is ____. > 5 µM

Fill blank: measured IC50 of the compound CC(C)(C)C=C(C#N)C(=O)N1C[C@@H]2C[C@@H]2[C@H]1COC(=O)N[C@@H](Cc1ccccc1)B(O)O [Example 38] is ____. > 5 µM

Fill blank: measured IC50 of the compound CC(C)(C=C(C#N)C(=O)N1CCCC[C@@H]1COC(=O)N[C@@H](Cc1ccccc1)B(O)O)N1CCCCC1 [Example 30] is ____. > 5 µM
